Hey, just so you know, these numbers are from paper PMC11609934.

protocol_notes: Human liver microsome stability
Assay type: in vitro ADME
applied_conditions: pooled human liver microsomes
Please respond with 1 when measured microsomal CLint at 1 h, 1 µM is strictly beneath 80 µL/min/mg, and with 0 in all other cases.

Ask | Please state whether microsomal CLint at 1 h, 1 µM is below 80 µL/min/mg for CCCN(Cc1ccccc1)Cc1ccc(C(=O)NC2CC2)cc1 [Compound 26]
Reply | 0

Ask | Could you do the same for CCCN(Cc1ccc(C(=O)NC2CC2)cc1)Cc1ccc(C(C)(C)C)cc1 [Compound 107] , please?
Reply | 0

Ask | Could you do the same for O=C(NC1CC1)c1ccc(CN(Cc2ccc(Cl)cc2Cl)C2CC2)cc1 [W499 (2)] , please?
Reply | 0

Ask | Could you do the same for CCCN(Cc1ccc(C(=O)NC2CC2)cc1)Cc1cc(C(F)(F)F)cc(C(F)(F)F)c1 [Compound 109] , please?
Reply | 1

Ask | Could you do the same for CCCN(Cc1ccc(C(=O)NC2CC2)cc1)Cc1ccc(C(F)(F)F)cc1 [WJM280 (108)] , please?
Reply | 1

Ask | Could you do the same for O=C(NC1CC1)c1ccc(CN(Cc2ccccc2)C2CCC2)cc1 [Compound 22] , please?
Reply | 0

Ask | Could you do the same for CC(C)N(Cc1ccccc1)Cc1ccc(C(=O)NC2CC2)cc1 [Compound 21] , please?
Reply | 1

Ask | Could you do the same for CC(c1ccccc1)N(Cc1ccc(C(=O)NC2CC2)cc1)C1CC1 (stereo not shown) [Compound 97] , please?
Reply | 0

Ask | Could you do the same for O=C(NC1CC1)c1ccc(CN(Cc2ccccc2)C2CC2)cc1 [Compound 17] , please?
Reply | 1
